compounds and their reported TGI
# System: OVCAR-8 ovarian
# Assay Comment: NCI tumour cell line growth inhibition, 48 h
Answer format: numeric, µM implied, no suffix.

>>> endpoint_value("Cc1cc(C)c(CNC(=O)c2cc(-c3ccc(CN4CCOCC4)cc3)cc3c2cnn3C2CCCC2)c(=O)[nH]1")
57.9

Here is the next item to consider.
# return recorded TGI for entry "CN(CCNC(=O)c1[nH]nc2c1Cc1ccccc1-2)CCNC(=O)c1[nH]nc2c1Cc1ccccc1-2"
41.7

----------
# Tested on: SK-MEL-5 melanoma
# Assay Comment: NCI tumour cell line growth inhibition, 48 h
Mark true for reported TGI of 0.6 µM or greater; mark false for anything smaller.

Known results for compounds:
>>> cat("O=C(O)c1ccccc1SCc1cccc2c(=O)c3ccc(Cl)cc3oc12")
"true"
>>> cat("COc1cc(/C=C2\\CC3C4CCC5=CC(=O)CC[C@]5(C)C4CC[C@]3(C)C2=O)ccc1OCCCn1ccnc1 (stereo not given in full)")
"true"
>>> cat("O=C1/C(=C\\c2ccc(Br)cc2)CN(C(=O)c2ccccc2F)C/C1=C\\c1ccc(Br)cc1")
"true"
>>> cat("CCN1C/C(=C\\c2cc(OC)c(OC)c(OC)c2)C2=NN(c3ccccc3)C(c3cc(OC)c(OC)c(OC)c3)C2C1 (stereo not given)")
"true"
>>> cat("CC1(C)CCC(S(=O)(=O)c2ccc3c(c2)/C(=N\\O)c2cc(S(=O)(=O)N4CCN(c5ccc(F)cc5O)CC4)ccc2-3)CC1")
"false"

# bool: TGI of O=C(OC(CNc1c(C(=O)c2ccccc2)c(=O)n(Cc2ccccc2)c(=O)n1Cc1ccccc1)CN1CCOCC1)c1ccccc1 (stereo not given) >= 0.6 µM
true

# bool: TGI of COc1ccc2c(c1)N(CCO)C1=C(C(=O)OC1)C2c1cc(OC)c(OC)c(OC)c1 (stereo not given) >= 0.6 µM
false
